- Assay summary: AUC in cynomolgus monkey at 3 mg/kg, po
- Assay type: ADME, organism-based, Macaca fascicularis
- Design: dose 3 mg/kg, route oral
- Measurement conditions: plasma
Measured property: AUC (µM·h)
Please reply with the bare figure in µM·h and do not write the unit itself.

Please report the recorded AUC for `COCCCc1cc(CN(C(=O)[C@H]2CNCC[C@@H]2c2ccn(C)c(=O)c2)C2CC2)cc(Br)c1C` .
0.9

* * *

- Assay summary: Plasma concentration in anesthetized, vagotomized and ventilated Mongrel dog at 10 mg/kg, iv after 1.5 hrs
- Format: ADME, organism-based, Canis lupus familiaris
- Set-up: dose 10 mg/kg, route intravenous
Measured concentration at 1.5 h of individual entries
Please reply with the bare figure in µM and do not write the unit itself.

These recorded examples may help you get a feel for the data.
COCCCc1cc(CN(C(=O)[C@H]2CNCC[C@@H]2c2ccn(C)c(=O)c2)C2CC2)cc(Br)c1C    9.3
COCCCn1cc(CN(C(=O)[C@H]2CNCC[C@@H]2c2ccn(C)c(=O)c2)C2CC2)c2ccccc21    25

Consider now this further molecule.
Please report the recorded concentration at 1.5 h for `COCCCc1cc(Cl)c(Cl)c(CN(C(=O)[C@H]2CNCC[C@@H]2c2ccn(C)c(=O)c2)C2CC2)c1` .
15

* * *

- Study system: CYP3A4 (Homo sapiens)
- Sequence (P08684 whole entry): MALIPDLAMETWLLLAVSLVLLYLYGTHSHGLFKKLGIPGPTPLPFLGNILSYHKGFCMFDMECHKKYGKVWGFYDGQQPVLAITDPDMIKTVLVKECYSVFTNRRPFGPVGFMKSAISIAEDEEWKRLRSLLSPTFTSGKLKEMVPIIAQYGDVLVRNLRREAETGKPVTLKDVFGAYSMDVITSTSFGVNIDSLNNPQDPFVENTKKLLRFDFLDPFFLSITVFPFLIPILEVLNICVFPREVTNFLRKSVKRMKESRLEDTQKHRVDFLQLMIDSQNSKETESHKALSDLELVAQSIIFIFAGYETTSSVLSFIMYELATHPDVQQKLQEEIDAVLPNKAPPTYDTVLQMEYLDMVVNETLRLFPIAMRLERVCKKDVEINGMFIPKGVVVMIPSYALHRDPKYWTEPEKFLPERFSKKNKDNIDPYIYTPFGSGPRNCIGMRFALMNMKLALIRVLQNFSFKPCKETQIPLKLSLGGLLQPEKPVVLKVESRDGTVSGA
- Assay summary: Time dependent inhibition of CYP3A4 assessed as conversion of testosterone to 6-beta-hydroxytestosterone at 10 uM relative to control
- Format: ADME
- Measurement conditions: probe testosterone
Measured property: inhibition at 10 µM (%)
Please reply with the bare figure in % and do not write the unit itself.

These recorded examples may help you get a feel for the data.
COCCCc1cc(CN(C(=O)[C@H]2CNCC[C@@H]2c2cc(=O)n(C)c3ccccc23)C2CC2)cc(OCCOC)c1    5
CCn1ccc([C@H]2CCNC[C@@H]2C(=O)N(Cc2cc(CCCOC)cc(OCCOC)c2)C2CC2)cc1=O    5

Consider now this further compound.
Please report the recorded inhibition at 10 µM for `Cn1ccc([C@H]2CCNC[C@@H]2C(=O)N(Cc2cn(Cc3cccc(F)c3)c3cccc(F)c23)C2CC2)cc1=O` .
39
